The measurements presented in this section are drawn from patent US20230151037A1.

We begin with a simple list: items and their reported EC50.
Target: human GPR40 (Homo sapiens)
Sequence (O14842 whole entry): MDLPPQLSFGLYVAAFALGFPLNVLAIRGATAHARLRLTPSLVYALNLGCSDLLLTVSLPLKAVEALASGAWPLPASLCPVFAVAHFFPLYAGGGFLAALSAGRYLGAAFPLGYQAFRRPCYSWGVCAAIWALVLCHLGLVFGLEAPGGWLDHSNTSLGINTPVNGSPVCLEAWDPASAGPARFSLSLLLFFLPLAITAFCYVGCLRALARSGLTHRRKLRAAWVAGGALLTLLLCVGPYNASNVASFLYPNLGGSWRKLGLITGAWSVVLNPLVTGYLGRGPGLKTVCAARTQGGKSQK
Experiment: Inositol phosphate accumulation assay (IP1 HTRF) in CHO-K1 cells expressing human GPR40
Conditions: 90 min

COc1cc(-c2ccc(COc3cccc(C(CP(=O)(O)O)C4CC4)c3)cc2CN(C(C)C)C(C)C)c(F)cn1 (stereo not drawn) [Compound 8]
> 1000 nM
COc1cccc(-c2ccc(COc3cc([C@@H](CP(C)(=O)O)C4CC4)ccn3)cc2[C@@H](OC)C(C)(C)C)c1 [Compound 30]
≤ 50 nM
CCP(=O)(O)CC(c1cccc(OCc2ccc(-c3cc(OC)ncc3F)c(CN(C(C)C)C(C)C)c2)c1)C1CC1 (single isomer, unassigned) [Compound 19]
> 1000 nM
CCP(=O)(O)CC(c1cccc(OCc2ccc(-c3cc(OC)ncc3F)c(CN(C(C)C)C(C)C)c2)c1)C1CC1 (single isomer, unassigned) [Compound 17]
> 1000 nM
CCC(C[PH](=O)O)c1cccc(OCc2ccc(-c3cc(OC)ncc3F)c(CN(C(C)C)C(C)C)c2)c1 (stereo not drawn) [Compound 23]
> 1000 nM

API: the following record is the query input.
// sample COc1cc(-c2ccc(COc3cccc(C(CS(=O)(=O)O)C4CC4)c3)cc2CN(C(C)C)C(C)C)c(F)cn1 (single isomer, unassigned) [Compound 15] , its EC50 was > 1000 nM
